Source: paper PMC9090415

# measured_target: P. falciparum apicoplast DNA polymerase (Pf-apPOL) (Plasmodium falciparum, UniProt Q8ILY1)
# Sequence (Q8ILY1 entry or part of it): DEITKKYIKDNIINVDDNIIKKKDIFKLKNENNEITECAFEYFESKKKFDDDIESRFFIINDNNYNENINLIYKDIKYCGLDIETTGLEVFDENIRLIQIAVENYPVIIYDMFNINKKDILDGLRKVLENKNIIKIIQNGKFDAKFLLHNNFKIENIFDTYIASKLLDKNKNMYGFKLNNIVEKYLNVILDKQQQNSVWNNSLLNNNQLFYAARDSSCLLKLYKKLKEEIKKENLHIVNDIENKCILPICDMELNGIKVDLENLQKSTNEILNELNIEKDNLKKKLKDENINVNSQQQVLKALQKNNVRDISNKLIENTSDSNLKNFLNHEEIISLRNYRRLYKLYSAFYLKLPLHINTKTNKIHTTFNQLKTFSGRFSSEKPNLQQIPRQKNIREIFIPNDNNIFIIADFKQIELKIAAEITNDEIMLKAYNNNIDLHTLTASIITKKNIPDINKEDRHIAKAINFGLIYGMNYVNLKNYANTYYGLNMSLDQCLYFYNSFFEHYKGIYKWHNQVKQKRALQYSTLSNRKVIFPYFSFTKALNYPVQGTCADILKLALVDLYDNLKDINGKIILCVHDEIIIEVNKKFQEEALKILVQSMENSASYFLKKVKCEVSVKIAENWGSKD
# assay_overview: Fluorescence-based high-throughput DNA polymerase assay (molecular beacon), primary screen and dose-response;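 on % inhibition apPOL 180': test concentration in µM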
# Type: biochemical
# applied_conditions: DRC-2; 180'; concentration 5
Decide by % inhibition apPOL 180': equal to or exceeding 30% means true (1), less means false (0).

Example entries begin here.
| compound | answer_label |
| --- | --- |
| COc1ccc(NC(=O)Cn2nc3c(cc2=O)CCC3)cc1Cl [Molecule 4, COc1ccc(cc1Cl)NC(=O)Cn1nc2CCCc2cc1=O] | true (1) |
| O=C(Cn1ccc2c(=O)[nH]ccc21)Nc1ccc(Cl)cc1 [Molecule 36, O=C(Cn1ccc2c1cc[nH]c2=O)Nc1ccc(cc1)Cl] | false (0) |
| COc1ccc(NC(=O)Cn2ccc3c(=O)[nH]ccc32)cc1Cl [Molecule 10, COc1ccc(cc1Cl)NC(=O)Cn1ccc2c1cc[nH]c2=O] | true (1) |

// query In plain terms: is recorded % inhibition apPOL 180' at least 30% for CCCCC(=O)N1CCc2c(nc3cc(-c4ccccc4Cl)[nH]n3c2=O)C1 [Molecule 37] ?
// result false (0)

* * *

# measured_target: P. falciparum apicoplast DNA polymerase (Pf-apPOL) (Plasmodium falciparum, UniProt Q8ILY1)
# assay_overview: Fluorescence-based high-throughput DNA polymerase assay (molecular beacon), primary screen and dose-response
# Assay type: biochemical
# applied_conditions: DRC-2, 5', concentration 10
value_type: % inhibition Apo pol 5'

Example entries and their recorded answers appear below.
| compound | % inhibition Apo pol 5' |
| --- | --- |
| CN(C)C=C1SCc2ccccc2C1=O [Molecule 77, CN(C=C1SCc2c(C1=O)cccc2)C] | 20% |
| COc1ccc(C(=O)Nc2cccc(-c3nc4ncccc4o3)c2)cc1[N+](=O)[O-] [KU0063313] | 16% |

# per-item lookup of % inhibition Apo pol 5'; items listed below
1. O=C(O)CC1SC(c2ccc3c(c2)OCO3)=NC1=O (stereo not shown) [Molecule 69, OC(=O)CC1SC(=NC1=O)c1ccc2c(c1)OCO2]
2. CN1CC(=Cc2ccco2)C(=O)C(=Cc2ccco2)C1 [Molecule 65, CN1CC(=Cc2ccco2)C(=O)C(=Cc2ccco2)C1]

// result
1. 20%
2. 42%

* * *

# measured_target: bacteriophage T4 DNA polymerase (Enterobacteria phage T4, UniProt P04415)
# Construct: made in house
# Sequence (P04415 whole entry): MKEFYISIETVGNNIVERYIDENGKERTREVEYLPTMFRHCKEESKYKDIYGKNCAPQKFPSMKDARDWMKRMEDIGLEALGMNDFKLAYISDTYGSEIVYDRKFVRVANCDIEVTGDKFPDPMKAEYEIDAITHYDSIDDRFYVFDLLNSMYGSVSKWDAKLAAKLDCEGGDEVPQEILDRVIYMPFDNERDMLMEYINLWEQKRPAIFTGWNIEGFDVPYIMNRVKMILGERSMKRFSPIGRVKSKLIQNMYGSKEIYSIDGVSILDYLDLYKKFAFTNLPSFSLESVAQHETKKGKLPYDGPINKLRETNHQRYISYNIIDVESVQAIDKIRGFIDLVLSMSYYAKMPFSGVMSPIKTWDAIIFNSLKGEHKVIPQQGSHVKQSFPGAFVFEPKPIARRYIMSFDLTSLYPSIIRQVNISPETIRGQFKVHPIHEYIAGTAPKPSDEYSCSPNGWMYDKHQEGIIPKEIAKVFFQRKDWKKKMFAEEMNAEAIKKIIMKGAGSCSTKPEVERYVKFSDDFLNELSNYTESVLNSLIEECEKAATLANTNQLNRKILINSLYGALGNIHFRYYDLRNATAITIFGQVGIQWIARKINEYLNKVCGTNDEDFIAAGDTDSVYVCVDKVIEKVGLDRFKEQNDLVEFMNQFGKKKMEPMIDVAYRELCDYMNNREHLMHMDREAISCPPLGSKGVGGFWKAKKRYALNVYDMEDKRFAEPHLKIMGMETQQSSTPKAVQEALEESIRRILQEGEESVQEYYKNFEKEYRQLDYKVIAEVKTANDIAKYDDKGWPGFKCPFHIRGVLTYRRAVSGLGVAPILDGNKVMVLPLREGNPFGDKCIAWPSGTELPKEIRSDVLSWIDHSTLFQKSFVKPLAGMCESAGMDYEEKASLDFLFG
# assay_overview: Counter-screen against bacteriophage T4 DNA polymerase
# Format: biochemical
# applied_conditions: DRC-2; read at 180'; concentration 40
# Experimental: Codon-optimized, exonuclease-deficient Pf-apPOL was overexpressed in E. coli BL21 (DE3) and purified as described. The protein was dialysed against two, 1-liter changes of 20 mM Tris-HCl (pH 8.0), 400 mM NaCl, and 20% glycerol. […] Each compound was tested in a dose-response format to determine IC50 values. […] T4 DNA polymerase can be produced in large quantities, and is in the same family (B-family) as the replicative human DNA polymerases (α, δ, and ε)[20].
value_type: % inhibition T4 180' 40 (%)
Answers are plain numbers, in %.

| compound | units_symbol | % inhibition T4 180' 40 |
| --- | --- | --- |
| COc1ccc(C2CC(c3ccc(Cl)cc3Cl)Nc3nc(N)nn32)cc1OC (stereo not drawn) | % | -4 |
| O=C(c1ccccc1)N1CCc2c(nc3cc(-c4ccccc4)[nH]n3c2=O)C1 | % | -15 |
| O=C1CSC2=NC3=C(CCc4ccccc43)C(c3cccs3)N12 (stereo not drawn) | % | 5.53 |
| CC(=O)OCC1=C(C(=O)[O-])N2C(=O)[C@@H](NC(=O)Cc3cccs3)[C@H]2SC1.[Na+] | % | 20 |
| COc1ccc(/C=C/c2cc(C(=O)O)c3ccccc3n2)cc1 | % | 25 |

Lab note: next compound to report on.
// query Given the compound `Cc1cccc(-c2noc(C(=O)NNC(=O)C(Cl)(Cl)Cl)n2)c1` , what is its reported % inhibition T4 180' 40?
// result -9

* * *

# measured_target: UniProt:Q8ILY1
# assay_overview: Fluorescence-based high-throughput DNA polymerase assay (molecular beacon), primary screen and dose-response
# Type: biochemical
# applied_conditions: DRC-2; 90'; conc 5
Decide by % inhibition ApPOL 90': equal to or exceeding 20% means Condition met, less means Condition not met.

| molecule | answer_label |
| --- | --- |
| CC(C)CCNC(=O)c1cnn2c(O)cc(CSc3ccc(Cl)cc3)nc12 | Condition met |
| Cc1cc(C)c2c(c1)C1C=CCC1C(c1ccc(C(=O)O)cc1)N2 (stereo not shown) | Condition met |
| N#CC(C#N)=C1SCN(c2cccc(Cl)c2)CS1 | Condition met |
| O=C1Nc2ccc(I)cc2C1=Cc1cc(Br)c(O)c(Br)c1 | Condition not met |
| O=c1nc(/C=C/c2ccc(Br)cc2)oc2ccccc12 | Condition not met |
| COc1ccccc1C1CC(=O)Oc2cc3c(cc21)OCO3 (stereo not shown) | Condition met |

Below: the item to evaluate.
// query In plain terms: is recorded % inhibition ApPOL 90' at least 20% for `Cc1ccc(NC(=O)Cn2ccc3c(=O)[nH]ccc32)c(C)c1` ?
// result Condition not met

* * *

# measured_target: P. falciparum apicoplast DNA polymerase (Pf-apPOL) (Plasmodium falciparum)
# assay_overview: Fluorescence-based high-throughput DNA polymerase assay (molecular beacon), primary screen and dose-response
# Format: biochemical
# applied_conditions: DRC-2; 5'; concentration 10
Grouping by measured % inhibition Apo pol 5' is done with the following cut points: c1 (below 20%), c2 (20% to below 30%), c3 (30% or more)

| compound | answer_label |
| --- | --- |
| O=C1N/C(=N/c2ccccc2Cl)S/C1=C/c1ccc([N+](=O)[O-])o1 [KU0054524] | c3 |
| O=C(NC(C(Cl)Cl)S(=O)(=O)c1ccccc1)c1ccccc1 (centres unmarked) [KU0045239] | c2 |
| O=c1nc(/C=C/c2ccc(Br)cc2)oc2ccccc12 [KU0052629] | c1 |
| NC(=O)c1cc[n+](CC2=C(C(=O)[O-])N3C(=O)[C@@H](NC(=O)[C@@H](c4ccccc4)S(=O)(=O)[O-])[C@H]3SC2)cc1.[Na+] [Molecule 9] | c3 |

// query Into which bin does this compound go? O=C(Cc1cccs1)N1CCN(c2nc(CN3CCOCC3)cs2)CC1 [Molecule 35]
// result c3

// query Into which bin does this compound go? Cl.NC(CO)C(=O)NNCc1ccc(O)c(O)c1O (centres unmarked) [KU0260493]
// result c2

// query Into which bin does this compound go? CCOc1ccc2cc(C3=NN(C(=O)CCC(=O)O)C(c4ccc(C)cc4)C3)c(=O)[nH]c2c1 (centres unmarked) [KU0056200]
// result c2

// query Into which bin does this compound go? Cc1cc(C)c(O)c(/N=C/c2cc([N+](=O)[O-])cc(Br)c2O)c1 [KU0046272]
// result c1

// query Into which bin does this compound go? CC(C)(C)OC(=O)COc1ccc2cc(-c3ccccc3)c(=O)oc2c1 [Molecule 81]
// result c2

// query Into which bin does this compound go? NS(=O)(=O)c1ccc(NC(=O)c2ccc(N3C(=O)CCC3=O)cc2)cc1 [KU0025331]
// result c2

* * *

# measured_target: UniProt:Q8ILY1
# assay_overview: Fluorescence-based high-throughput DNA polymerase assay (molecular beacon), primary screen and dose-response
# Type: biochemical
# applied_conditions: DRC-2; concentration 20; 40'
value_type: % inhibition Apol 40' (%)
Give bare numbers, in %.

Example entries and their recorded answers appear below.
| record_smiles | measured_target | value_type | test_value |
| --- | --- | --- | --- |
| Cc1cc(C)nc(Nc2nc(CC(=O)Nc3nc(-c4ccco4)cs3)cs2)n1 | UniProt:Q8ILY1 | % inhibition Apol 40' | 59 |
| O=C(Nc1c2c(nn1-c1ccccc1)CSC2)c1ccco1 | UniProt:Q8ILY1 | % inhibition Apol 40' | 59 |

Lab note: next molecule to report on.
// query Given the molecule `O=C(Cc1cccs1)N1CCN(c2nc(CN3CCOCC3)cs2)CC1` , what is its reported % inhibition Apol 40'?
// result 61

* * *

# measured_target: P. falciparum apicoplast DNA polymerase (Pf-apPOL) (Plasmodium falciparum)
# assay_overview: Fluorescence-based high-throughput DNA polymerase assay (molecular beacon), primary screen and dose-response
# Type: biochemical
# applied_conditions: DRC-1; 10'; concentration 5
Decide by % inhibition Apo pol 10': equal to or exceeding 20% means YES, less means NO.

| compound | answer_label |
| --- | --- |
| Cc1ccc2c(C(=O)NCCc3cccnc3)cc(NC(=O)C(C)C)cc2n1 | NO |
| Cc1ccccc1C(=O)N1CCc2c(nc3cc(-c4ccccc4)[nH]n3c2=O)C1 | NO |
| O=C(NNC(=O)C(F)(F)Sc1ccccc1)c1ccsc1 [Molecule 68, O=C(C(Sc1ccccc1)(F)F)NNC(=O)c1cscc1] | YES |
| COc1ccc(-c2cc(=O)c3cc(O)ccc3o2)cc1OC | NO |
| COCCN(CCOC)Cc1c(O)ccc2c1OC(=Cc1cc(Br)ccc1OC)C2=O | NO |

Below: the item to evaluate.
// query In plain terms: is recorded % inhibition Apo pol 10' at least 20% for `COc1cc(NC(=O)c2ccccc2)c(OC)cc1NC(=O)Cc1cccs1` ?
// result NO
